List of Internalization rate (flow cytometry, MDA-MB-468 cells) values.
# STUDY_TARGET: T1, human Trop-2 on Trop-2 positive cancer cells (human, UniProt P09758 27-323)
# T1 sequence (looked up): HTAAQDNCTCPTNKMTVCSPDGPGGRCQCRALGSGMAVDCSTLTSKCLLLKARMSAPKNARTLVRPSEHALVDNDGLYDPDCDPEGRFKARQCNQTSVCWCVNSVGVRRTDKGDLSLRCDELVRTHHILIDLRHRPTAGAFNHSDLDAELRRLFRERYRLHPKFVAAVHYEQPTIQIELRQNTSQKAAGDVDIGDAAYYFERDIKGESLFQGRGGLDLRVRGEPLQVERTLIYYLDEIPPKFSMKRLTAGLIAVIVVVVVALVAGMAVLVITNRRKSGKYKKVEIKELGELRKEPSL
# RUN_DESCRIPTION: cell-based or functional assay
ASSAY_METRIC: Internalization rate (flow cytometry, MDA-MB-468 cells) (%)

BINDER: humanized IgG #118-2-5 Hu(A5)/LuX (antibody, V domains shown, Second round of humanization) VH: QVQLQESGPGLVKPSETLSLTCTVSGFSLTSYGVNWIRQPPGKGLEWIGVMWAGGSTNYNSALMSRVTISVDTSKNQFSLKLSSVTAADTAMYYCARDENWDGAWFAYWGQGTLVTVSS VL: DIVMTQSPDSLAVSLGERATINCKSSQSLLNSGTRKNYLAWYQQKPGQPPKLLIYWASSRESGVPDRFSGSGSGTDFTLTISSLQAEDVAVYYCKQSYNLFTFGGGTKVEIK
QUANTITATIVE_RESULT: 11.5
//
BINDER: humanized IgG #118-2-5 HuD/LuY (antibody, V domains shown, Full-length IgG expressed in HEK293-6E cells; also called 8 (HuD/LuY)) VH: QVQLKESGPGLVAPSETLSITCTVSGFSLTSYGVNWIRQPPGKGLEWLGVMWAGGSTNYNSALMSRLTISKDTSKNQVSLKLSSVQAADTAMYYCARDENWDGAWFAYWGQGTLVTVSS VL: DIVMTQSPSSLAVSLGERATMSCKSSQSLLNSGTRKNYLAWYQQKPGQPPKLLISWASSRESGVPDRFSGSGSGTDFTLTISSVQAEDLAVYYCKQSYNLFTFGGGTKVEIK
QUANTITATIVE_RESULT: 57.3
//
BINDER: benchmark antibody hRS7 (antibody, V domains shown) VH: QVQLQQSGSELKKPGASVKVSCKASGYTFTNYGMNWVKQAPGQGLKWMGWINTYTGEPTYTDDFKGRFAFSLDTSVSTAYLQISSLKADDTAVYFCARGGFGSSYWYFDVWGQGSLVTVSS VL: DIQLTQSPSSLSASVGDRVSITCKASQDVSIAVAWYQQKPGKAPKLLIYSASYRYTGVPDRFSGSGSGTDFTLTISSLQPEDFAVYYCQQHYITPLTFGAGTKVDIK
QUANTITATIVE_RESULT: 10.9

These data points were gathered from patent US20230235080A1.
